biological target: CaBzz1-D2; assay: SPOT peptide array binding signal intensity (averaged, normalized) (arbitrary units (background-subtracted, floor 0; scale differs between SH3 domains)); higher = stronger binding of the SH3 domain to the peptide
Give measured SPOT peptide array binding signal intensity for each item. Keep answers brief.
Answer field: number only, no words.

// query Quick one: SPOT peptide array binding signal intensity of MARRRLPDRPPNGIG ?
// result 102

// query Now this one: KNPRRQLQIPRQQPS
// result 42

// query And the next one, SNRRPVPRRPSQPLN ?
// result 153
